- tested target: HDAC1 (Homo sapiens (Human))
- Sequence (Q13547 whole entry): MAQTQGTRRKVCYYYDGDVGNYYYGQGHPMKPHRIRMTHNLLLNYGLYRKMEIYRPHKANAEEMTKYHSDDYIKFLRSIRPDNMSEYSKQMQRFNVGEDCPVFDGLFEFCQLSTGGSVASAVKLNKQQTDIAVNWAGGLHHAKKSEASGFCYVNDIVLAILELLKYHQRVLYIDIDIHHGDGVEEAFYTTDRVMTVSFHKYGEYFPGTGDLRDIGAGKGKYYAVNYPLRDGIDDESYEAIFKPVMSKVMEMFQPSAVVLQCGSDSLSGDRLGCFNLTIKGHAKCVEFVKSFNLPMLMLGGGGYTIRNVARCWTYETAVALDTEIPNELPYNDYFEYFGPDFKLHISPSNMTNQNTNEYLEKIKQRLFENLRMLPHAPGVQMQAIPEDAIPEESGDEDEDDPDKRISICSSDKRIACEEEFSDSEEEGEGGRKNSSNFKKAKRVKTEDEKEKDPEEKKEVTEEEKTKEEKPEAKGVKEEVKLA
- experiment notes: HDAC in vitro enzymatic assay (fluorescence)
- stated conditions: read-out: IC50 HDAC1; selectivity profiling; top concentration 200 μM
pIC50: −log10 of the molar value.
Tag: fulfilled if measured pIC50 is not below 5, not fulfilled if it is.

> print(dat)
                                   molecule                 tested.target  qualitative.label
1  O=C(NO)c1ccc2nc(-c3cccs3)[nH]c2c1 [Example 98]  HDAC1 (Homo sapiens (Human))          fulfilled
2  CN1CCN(Cc2ccc(-c3nc4ccc(C(=O)NO)cc4[nH]3)cc2)CC1 [Example 207]  HDAC1 (Homo sapiens (Human))          fulfilled
3  O=C(NO)c1ccc2nc(-c3ccc(-c4ccccc4)cc3)[nH]c2c1 [Example 6]  HDAC1 (Homo sapiens (Human))      not fulfilled
4  CC(C)Oc1ccc(-c2nc3ccc(C(=O)NO)cc3[nH]2)cc1 [Example 97]  HDAC1 (Homo sapiens (Human))          fulfilled
5  CC(C)c1ccc(-c2nc3ccc(C(=O)NO)cc3[nH]2)cc1 [Example 50]  HDAC1 (Homo sapiens (Human))          fulfilled

---

Below is a list of entries, each paired with its recorded IC50 value.
- tested target: HDAC8 (Homo sapiens (Human), UniProt Q9BY41)
- Sequence (Q9BY41 whole entry): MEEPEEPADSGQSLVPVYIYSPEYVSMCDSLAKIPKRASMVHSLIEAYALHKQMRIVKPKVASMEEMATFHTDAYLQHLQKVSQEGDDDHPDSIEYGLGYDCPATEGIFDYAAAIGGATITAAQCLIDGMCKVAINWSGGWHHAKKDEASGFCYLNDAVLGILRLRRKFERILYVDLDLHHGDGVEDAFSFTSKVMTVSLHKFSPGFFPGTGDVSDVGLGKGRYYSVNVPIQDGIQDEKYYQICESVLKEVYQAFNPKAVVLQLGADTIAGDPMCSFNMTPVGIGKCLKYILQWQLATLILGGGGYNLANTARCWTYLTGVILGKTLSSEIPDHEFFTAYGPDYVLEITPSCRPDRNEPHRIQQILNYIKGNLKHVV
- experiment notes: HDAC in vitro enzymatic assay (fluorescence)
- stated conditions: read-out: IC50 HDAC8; selectivity profiling; top concentration 200 μM
metric name: IC50 (µM)

> print(dat)
                                   compound                             tested.target  metric.name  value.units  reported.measurement
1  Cn1c(-c2ccc(-c3ccccc3)cc2)nc2cc(C(=O)NO)ccc21 [Example 225]  HDAC8 (Homo sapiens (Human), UniProt Q9BY41)         IC50           µM                 0.074
2  O=C(NO)c1ccc2nc(-c3ccc(-c4ccccc4)cc3)[nH]c2c1 [Example 6]  HDAC8 (Homo sapiens (Human), UniProt Q9BY41)         IC50           µM                  0.47
3  CCc1ccc(-c2nc3ccc(C(=O)NO)cc3[nH]2)cc1 [Example 109]  HDAC8 (Homo sapiens (Human), UniProt Q9BY41)         IC50           µM                   1.2
4  CC(C)Oc1ccc(-c2nc3ccc(C(=O)NO)cc3[nH]2)cc1 [Example 97]  HDAC8 (Homo sapiens (Human), UniProt Q9BY41)         IC50           µM                  0.26
5  O=C(NO)c1ccc2nc(-c3cccc(Br)c3)[nH]c2c1 [Example 21]  HDAC8 (Homo sapiens (Human), UniProt Q9BY41)         IC50           µM                 0.062

---

- tested target: HDAC6 (Homo sapiens (Human), UniProt Q9UBN7)
- experiment notes: HDAC in vitro enzymatic assay (fluorescence)
- Type: biochemical
- stated conditions: selectivity profiling; top concentration 2 μM; read-out: IC50 HDAC6
metric name: IC50

> print(dat)
                                   compound  reported.measurement
1  COc1c(C)cc(-c2nc3cc(C(=O)NO)ccc3n2C)cc1C [Example 228]                3.5 nM
2  O=C(NO)c1ccc2nc(-c3ccc4c(c3)CCO4)[nH]c2c1 [Example 96]                5.2 nM
3  Cn1c(-c2ccc(-c3ccccc3)cc2)nc2cc(C(=O)NO)ccc21 [Example 225]                3.6 nM
4  O=C(NO)c1ccc2nc(-c3cccc(Br)c3)[nH]c2c1 [Example 21]                 12 nM
5  O=C(NO)c1ccc2nc(-c3ccccc3-c3ccccc3)[nH]c2c1 [Example 119]                 14 nM
